Ref: patent US4705799A

Test system: Staphylococcus aureus
Assay: In vivo efficacy of compounds administered subcutaneously in mouse intraperitoneal infections
Conditions: sc, 168 h; mouse i.p. Staphylococcus aureus infection; subcutaneous; dosed at infection and 4 h post-infection; 7 days; read-out: ED50 (50 percent effective dose)
quantity-measured: ED50 (mg/kg)
The answer is to be given in mg/kg; state only the numeric part.

Example results:
• CC(=O)NCC1CN(c2ccc(C[S+](C)[O-])cc2)C(=O)O1 (single isomer, unassigned) [Example 164] = 9.4
• CC(=O)NCC1CN(c2ccc(C(C)=O)c(C)c2)C(=O)O1 (stereo not shown) [Example 142] = 1.8
• CC(=O)NCC1CN(c2ccc(C(=O)C[S+](C)[O-])cc2)C(=O)O1 (single isomer, unassigned) [Example 165, dihydrate] = 8.4

// next item, ED50 requested
Data request: Lookup: ED50 / Staphylococcus aureus / CC(=O)c1ccc(N2CC(CNC(=O)C(Cl)Cl)OC2=O)cc1 (stereo not shown) [Example 172]
Data returned: 13.6

---

Test system: Staphylococcus epidermidis
Test: In vitro broth dilution minimal inhibitory concentration (standard microdilution method)
Assay type: cell-based
Conditions: 24 h, Mueller-Hinton broth, 24-hour, read-out: Microdilution Broth MIC
quantity-measured: MIC (µg/mL)
Write the value in µg/mL as a bare number.

• CC(=O)NCC1CN(c2ccc(CC(C)O)cc2)C(=O)O1 (stereo not drawn) [Example 100] = 12.5

Data request: Lab request: please report MIC under test system Staphylococcus epidermidis for CC(=O)NCC1CN(c2ccc(C(C)=O)cc2)C(=O)O1 (single isomer, unassigned) [Example 129]
Data returned: 0.4

Data request: // map CC(=O)c1ccc(N2CC(CNC(N)=O)OC2=O)cc1 (stereo not drawn) [Example 177] to recorded MIC (system: Staphylococcus epidermidis)
Data returned: 4

Data request: Which MIC is reported with Staphylococcus epidermidis for this entry: CC(=O)NCC1CN(c2ccc3c(c2)OCO3)C(=O)O1 (stereo not drawn) [Example 62] ?
Data returned: 50

Data request: Value wanted: MIC (Staphylococcus epidermidis) of entry CC(=O)NCC1CN(c2ccc(C(C)=NNC(C)=O)cc2)C(=O)O1 (stereo not drawn) [Example 36]
Data returned: 25

Data request: Form field: MIC recorded for CC(=O)NCC1CN(c2ccc(C(=O)C(Br)(Br)Br)cc2)C(=O)O1 (stereo not drawn) [Example 140] with Staphylococcus epidermidis (enter value)
Data returned: 4

Data request: Observed MIC on Staphylococcus epidermidis for CC(=O)c1ccc(N2CC(CNC(=O)CN=[N+]=[N-])OC2=O)cc1 (stereo not drawn) [Example 175] , please.
Data returned: 4

Data request: Return MIC measured with Staphylococcus epidermidis given this molecule: CCc1ccc(N2CC(CNC(C)=O)OC2=O)cc1 (stereo not drawn) [Example 82]
Data returned: 3.1

Data request: What value of MIC on Staphylococcus epidermidis does CC(=O)NCC1CN(c2ccc(C#N)cc2)C(=O)O1 (stereo not drawn) [Example 59] have?
Data returned: 100

Data request: Please provide the recorded MIC for COCC(=O)NCC1CN(c2ccc(S(C)(=O)=O)cc2)C(=O)O1 (stereo not drawn) [Example 57] , tested on Staphylococcus epidermidis.
Data returned: 12.5

Data request: Which MIC is reported with Staphylococcus epidermidis for this entry: CC(=O)NCC1CN(c2ccc(SCCO)cc2)C(=O)O1 (single isomer, unassigned) [Example 167] ?
Data returned: 3.1

Data request: Item: CCOC(=O)NCC1CN(c2ccc(SC)cc2)C(=O)O1 (stereo not drawn) [Example 33] Test system: Staphylococcus epidermidis Read-out: MIC Value: ?
Data returned: 50

Data request: Field: MIC (Staphylococcus epidermidis). Entry: CS(=O)(=O)c1ccc(N2CC(CNC(=O)C(Cl)Cl)OC2=O)cc1 (single isomer, unassigned) [Example 22]
Data returned: 2.4

Data request: So what MIC did COC(=O)NCC1CN(c2ccc(SC)cc2)C(=O)O1 (single isomer, unassigned) [Example 32] get with Staphylococcus epidermidis?
Data returned: 12.5

Data request: Field: MIC (Staphylococcus epidermidis). Entry: CC(=O)NCC1CN(c2ccc(Cl)cc2)C(=O)O1 (stereo not drawn) [Example 87]
Data returned: 100

Data request: Query the reported MIC for Staphylococcus epidermidis; item: CCCC(=O)NCC1CN(c2ccc(S(C)(=O)=O)cc2)C(=O)O1 (stereo not drawn) [Example 29]
Data returned: 12.5
